From: patent US8580556B2

System: tetA promoter (PtetA)-lacZ reporter in E. coli KM3
Format: cell-based
Conditions: Table 4; metsulfuron 20 μg/ml (20 ppm); 48 hrs at 30° C.
Documented relative β-galactosidase activity, inducer Ms across a set of molecules
Note: the reply should be a number with no unit written.

L1-20: library L1 hit, sulfonylurea-responsive TetR(B) variant, SEQ ID NO: 6 (protein, Sulfonylurea responsive repressor L1-20) MGSRLDKSKVINSALELLNEVGIEGLTTRKLAQKLGVEQPTLYWHVKNKRALLDALAIEMMDRHQTHFCPLEGESWQDFLRNNAKSMRCALLSHRDGAKVFLGTAWTEKQYETVENLLAFLCQQGFSLENALYALNAVATFTLGCVLWDQEKQVAKEERETPTTDSMPPLLRQAHELGDHQGAEPAFLFGLELIICGLEKQLKSESGS    12.4
L1-22: library L1 hit, sulfonylurea-responsive TetR(B) variant, SEQ ID NO: 7 (protein, Sulfornylurea responsive repressor L1-22) MGSRLDKSKVINSALELLNEVGIEGLTTRKLAQKLGVEQPTLYWHVKNKRALLDALAIEMMDRHHTHFCPLEGESWQDFLRNTAKSYRCALLSHRDGAKVCLGTAITEKQYETKENNLAFLCQQGFSLENALYARQAVRVFTLGCVLFDQEMQVAKEERETPTTDSMPPLLRQASELLDHQGAEPAFLFGLELIICGLEKQLKSESGS    0.1
L1-2: library L1 hit, sulfonylurea-responsive TetR(B) variant, SEQ ID NO: 3 (protein, Sulfonylurea responsive repressor L1-02) MGSRLDKSKVINSALELLNEVGIEGLTTRKLAQKLGVEQPTLYWHVKNKRALLDALAIEMLDRHATHFCPLEGESWQDFLRNNAKSFRCALLSHRDGAKVCLGTAVTEKQYETMENILAFLCQQGFSLENALYARRAVIAFTLGCVLWDQEYQVAKEERETPTTDSMPPLLRQARELIDHQGAEPAFLFGLELIICGLEKQLKCESGS    1.9

Exercise: Using known records, supply relative β-galactosidase activity, inducer Ms for L1-28: library L1 hit, sulfonylurea-responsive TetR(B) variant (protein, Sulfonylurea responsive repressor L1-28) MGSRLDKSKVINSALELLNEVGIEGLTTRKLAQKLGVEQPTLYWHVKNKRALLDALAIEMLDRHATHFCPLEGESWQDFLRNNAKSMRCALLSHRDGAKVWLGTAWTEKQYETPENVLAFLCQQGFSLENALYASRAVVTFTLGCVLTDQEKQVAKEERETPTTDSMPPLLRQAWELLDHQGAEPAFLFGLELIICGLEKQLKCESGS
Key: 18.8
